FYI, the data here is from ChEMBL document CHEMBL1201862.

# System: 786-0
# assay_notes: NCI tumour cell line growth inhibition, 48 h
Activity calls are given as the source filed them. Cut-off read from the data, not from the text of the source: active = GI50 up to about 1.1 µM and inactive = higher.
For each entry below, report its GI50 value.

Retrieve GI50 measured for CCOC(=O)CCc1cccc2c1oc1c(CCNC(=O)OCC3c4ccccc4-c4ccccc43)cccc12 and print it.
37.2 µM (inactive)

Retrieve GI50 measured for CCOC(=O)Nc1ccc(S(=O)(=O)Nn2cnnc2)cc1 and print it.
46.5 µM (inactive)

Retrieve GI50 measured for CC(=O)NCCc1c(-c2[nH]c3ccccc3c2CCNC(C)=O)[nH]c2ccccc12 and print it.
35.7 µM (inactive)

Retrieve GI50 measured for Cc1ccc(CSC(=N)Nc2ccccc2)cc1C and print it.
19.3 µM (inactive)

Retrieve GI50 measured for COc1cc(NS(C)(=O)=O)ccc1N1Cc2c[nH]c3ccc4nccc1c4c23 and print it.
30.8 µM (inactive)

Retrieve GI50 measured for O=C1C[C@@H]2[C@@H](CCC23CCCC3)N1 and print it.
> 100 µM (inactive)

Retrieve GI50 measured for COC(=O)C1=C(C(=O)OC)C2(C(=O)OC)OC1(OC)C(C1(C(=O)OC)C(C(=O)OC)=C1C(=O)OC)=C2C(=O)OC (stereo not given) and print it.
> 100 µM (inactive)

Retrieve GI50 measured for N#C/C(=C/c1ccsc1)C(=O)c1ccccc1 and print it.
> 100 µM (inactive)

Retrieve GI50 measured for C=C1CCC2[C@@H](CCC3[C@]2(C)CCC[C@]3(C)C(=O)OC)[C@@H]1CC=O (stereo not given in full) and print it.
36.1 µM (inactive)

Retrieve GI50 measured for Fc1ccc(F)c(/C=N/C23CC4CC(CC(C4)C2)C3)c1 and print it.
> 10 µM (inactive)
